B1: TPR t1 (parent)
chain: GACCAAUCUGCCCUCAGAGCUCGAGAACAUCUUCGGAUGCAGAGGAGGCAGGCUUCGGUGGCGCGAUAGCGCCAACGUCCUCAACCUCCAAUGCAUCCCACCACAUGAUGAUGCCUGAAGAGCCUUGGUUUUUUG

Variants of: B1
assay.remarks: polymerase ribozyme fitness, log enrichment relative to wild type (log ratio); higher = more active; in vitro selection for triplet polymerase activity

>  <mutant.designation>
A46G C53A C56U

>  <polymerase ribozyme fitness (log ratio)>
-0.0153

$$$$
>  <mutant.designation>
G17C U129A

>  <polymerase ribozyme fitness (log ratio)>
-5.13

$$$$
>  <mutant.designation>
C40G U67C C70U U116C U133C

>  <polymerase ribozyme fitness (log ratio)>
-5.53

$$$$
>  <mutant.designation>
A83U G127U

>  <polymerase ribozyme fitness (log ratio)>
-1.08

$$$$
>  <mutant.designation>
U14A C20G C40U G45A G63C U96G U112A G117A

>  <polymerase ribozyme fitness (log ratio)>
-6.83

$$$$
>  <mutant.designation>
G48C G71U

>  <polymerase ribozyme fitness (log ratio)>
-2.47

$$$$
>  <mutant.designation>
A26U G57U

>  <polymerase ribozyme fitness (log ratio)>
-4.04

$$$$
>  <mutant.designation>
G10U G52A C79G A119U

>  <polymerase ribozyme fitness (log ratio)>
-0.109

$$$$
>  <mutant.designation>
G48U G61U G113A

>  <polymerase ribozyme fitness (log ratio)>
-1.24

$$$$
>  <mutant.designation>
G36C G60U A118U

>  <polymerase ribozyme fitness (log ratio)>
-0.591

$$$$
>  <mutant.designation>
A6C

>  <polymerase ribozyme fitness (log ratio)>
-0.236

$$$$
>  <mutant.designation>
G60C U130G

>  <polymerase ribozyme fitness (log ratio)>
-1.28

$$$$
>  <mutant.designation>
C40A U106A G113A

>  <polymerase ribozyme fitness (log ratio)>
-3.55

$$$$
>  <mutant.designation>
G36A U92A

>  <polymerase ribozyme fitness (log ratio)>
-3.67

$$$$
>  <mutant.designation>
G45U U112A G128C

>  <polymerase ribozyme fitness (log ratio)>
-2.89

$$$$
>  <mutant.designation>
A37C A46C C124G

>  <polymerase ribozyme fitness (log ratio)>
0.609

$$$$
>  <mutant.designation>
G51C G61U C64A C79A G117A U133G

>  <polymerase ribozyme fitness (log ratio)>
-6.91

$$$$
>  <mutant.designation>
C8U A18U G57A C64U C94U

>  <polymerase ribozyme fitness (log ratio)>
-4.97

$$$$
>  <mutant.designation>
U59A C72A U109A

>  <polymerase ribozyme fitness (log ratio)>
-7.12

$$$$
>  <mutant.designation>
C15U G52C C62G U78A

>  <polymerase ribozyme fitness (log ratio)>
-3.9

$$$$
>  <mutant.designation>
U33C A37C

>  <polymerase ribozyme fitness (log ratio)>
-6.92

$$$$
>  <mutant.designation>
U7A C34A C97U

>  <polymerase ribozyme fitness (log ratio)>
-1.97

$$$$
>  <mutant.designation>
A27U G60C C82G G120C G128U

>  <polymerase ribozyme fitness (log ratio)>
-4.87

$$$$
>  <mutant.designation>
C72A G117U

>  <polymerase ribozyme fitness (log ratio)>
-2.32

$$$$
>  <mutant.designation>
G63C G117C C123G

>  <polymerase ribozyme fitness (log ratio)>
-2.31

$$$$
>  <mutant.designation>
A74U G110A

>  <polymerase ribozyme fitness (log ratio)>
-1.3

$$$$
>  <mutant.designation>
A29U C99U U106A

>  <polymerase ribozyme fitness (log ratio)>
-4.1

$$$$
>  <mutant.designation>
G69U G110U

>  <polymerase ribozyme fitness (log ratio)>
0.852

$$$$
>  <mutant.designation>
C20U A95C

>  <polymerase ribozyme fitness (log ratio)>
-2.07

$$$$
>  <mutant.designation>
G39C C70U U112C

>  <polymerase ribozyme fitness (log ratio)>
1.16

$$$$
>  <mutant.designation>
C8U G60C

>  <polymerase ribozyme fitness (log ratio)>
0.253

$$$$
>  <mutant.designation>
U7C A43U C72G A90G C124A U125G U133C

>  <polymerase ribozyme fitness (log ratio)>
-0.0724

$$$$
>  <mutant.designation>
G61U G135A

>  <polymerase ribozyme fitness (log ratio)>
-0.268

$$$$
